species on record: Rattus norvegicus; experiment: Open TG-GATES - Regimen: Single; type: toxicity, organism-based, Sprague-Dawley; parameters: regimen Single, gender Male, age 6 weeks; details: in vivo, po, 0 mg/kg, 9 h, tissue Blood, route gavage, dose level Control
Endpoint name: RBC (x10_4/ul)
Respond numerically; units are x10_4/ul and should not be typed.

Guide cases for RBC, answers given:
Compound: COc1ccc(Cc2nccc3cc(OC)c(OC)cc23)cc1OC
RBC, x10_4/ul: 647.6
//
Compound: CC(=O)Oc1ccccc1C(=O)O
RBC, x10_4/ul: 632.8
//
Compound: Clc1ccccc1CN1CCc2sccc2C1
RBC, x10_4/ul: 620
//
Compound: Cn1c(=O)c2[nH]cnc2n(C)c1=O.O
RBC, x10_4/ul: 649.6
//
Compound: NC(=O)N1c2ccccc2C=Cc2ccccc21 [CARBAMAZEPINE]
RBC, x10_4/ul: 621.8

Now consider the entry below.
## Input Field request: RBC | item: CCc1cc(C(N)=S)ccn1 [ETHIONAMIDE]
## Output 639.6
